Tested on: SNB-75
Assay Protocol: NCI tumour cell line growth inhibition, 48 h
Activity calls are given as the source filed them. No stated cut-off is given here; in the data, active = GI50 up to about 1.1 µM and inactive = higher.
Property Measured: GI50

[[record]]
compound = "Cc1csc2nc(-c3ccc([N+](=O)[O-])cc3)c(/C=N/N=C(N)N)n12"
target_system = "SNB-75"
val = "1.58 µM (inactive)"

[[record]]
compound = "O=[N+]([O-])c1ccc(C(O)/C(=N/O)c2nc3ccc(Cl)cc3nc2O)cc1 (stereo not given)"
target_system = "SNB-75"
val = "> 100 µM (inactive)"

[[record]]
compound = "CN(C(=O)Cc1ccccc1)n1cnn(CC(=O)OC(C)(C)C)c1=S"
target_system = "SNB-75"
val = "> 10 µM (inactive)"

[[record]]
compound = "CCN1CCC(O)(/C=C/c2ccc(Cl)c(Cl)c2)C(C(=O)/C=C/c2ccc(Cl)c(Cl)c2)C1 (stereo not given)"
target_system = "SNB-75"
val = "1.01 µM (active)"

[[record]]
compound = "COc1ccc2cc(/C=N/NC(=O)Nc3ccccc3)ccc2c1"
target_system = "SNB-75"
val = "> 100 µM (inactive)"


Indicate its recorded GI50; the compound in question is "Cn1ccnc1Sc1ccc(/C=N\NC(=O)c2cccc(F)c2)cc1[N+](=O)[O-]"
27 µM (inactive)

Quote GI50 reported for "Cn1c(-c2cccs2)cc(-c2ccsc2)c1-c1ccsc1" please.
> 100 µM (inactive)

Please look at this compound and report its GI50: "CSc1ccc(/C=C2\N=C(c3ccccc3)N(/N=C/c3cc4cc(C)ccc4nc3Cl)C2=O)cc1"
21.2 µM (inactive)

Complete the entry with GI50 for O=NN(CCCl)C(=O)NC1CCSc2ccccc21 (stereo not given)
87.3 µM (inactive)

Give recorded GI50. "O=C(/C=C/c1cccs1)c1ccc([N+](=O)[O-])cc1"
77.8 µM (inactive)

Please report the measured GI50 for O=C(CCC(=O)Nc1ccccc1C(F)(F)F)N/N=C1\C(=N\NC(=O)CCC(=O)Nc2ccccc2C(F)(F)F)C(c2ccc3c(c2)OCO3)Oc2ccccc21 (stereo not given)
10 µM (inactive)

Recall and state the measured GI50 for COC(=O)/C=C/C1C(C(=O)OC)C2(C(=O)OC)CCC1(C(=O)OC)N2 (stereo not given) .
> 100 µM (inactive)

Name the recorded GI50 of the compound listed here: "Cc1c2ccnc(-c3ccccc3)c2cc2c1[nH]c1ccccc12"
2.33 µM (inactive)

Please give measured GI50 of the following entry: "COC(=O)[C@H]1CO[C@H]2C/C(C)=C/CC/C(C)=C/CC[C@@]3(C)O[C@@H]3C[C@H]21"
14.4 µM (inactive)

Entry "O=c1cc(N2CCCC2)[nH]c(=O)n1-c1cccc(C(F)(F)F)c1" needs its GI50 filled in; supply it.
> 100 µM (inactive)

Assign GI50 to the following record: CCCCN1/C(=N/Nc2n[nH]c(=O)c3ccccc23)SCC1c1ccc(Cl)cc1 (stereo not given)
18.6 µM (inactive)

For the compound "CC1=C(C(=O)Nc2ccccc2)C(c2ccc(Cl)c(Cl)c2)C(C(=O)Nc2ccccc2)=C(C)N1" , give its measured GI50 value.
14.2 µM (inactive)

Return value of GI50 for input "CN1COc2c(n(C)c(=O)[nH]c2=O)C1" , no commentary.
> 100 µM (inactive)

Please list GI50 recorded for the compound "CCCCN1C(=O)C[C@H]2[C@@H]3CCc4cc(OCCN5CCCC5)ccc4[C@H]3CC[C@]2(C)C1=O"
3.4 µM (inactive)

Hello, please tell me recorded GI50 for this one: "COC(=O)C1=C(C(=O)OC)C(N(C)C)C(C(=O)OC)=C(C(=O)OC)S1"
> 100 µM (inactive)

Numbers sourced from ChEMBL document CHEMBL1201862.
